Experiment: inhibitors of TNFa-induced NFkB p65 translocation, primary screen, imaging, HUVEC, MLSMR starter and 10KST1 sets (AID 438);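 note: compound added about 3h40 before a 20 min TNFalpha stimulation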
Settings: HUVEC TNFa-induced p65 nuclear translocation; measured here: nuclei count (cytotoxicity indicator), at 2.08 µM
readout.label: cell count

// recorded cell count for `Cc1c(NC(=O)c2ccc(CN3CCc4ccccc4C3)cc2)c(=O)n(-c2ccccc2)n1C` : 593

Data point: CCCCOc1ccc(C2C3CN(C(=O)OCC)CC=C3C(C#N)=C(N)C2(C#N)C#N)cc1OC (stereo not drawn) ; cell count = 645

Notebook: `CC(=O)c1n[nH]nc1NC(=O)c1ccccc1` , cell count read as 574

Given item `Cc1cc(NC(=O)CSc2nc(CCC3CCCC3)nc3ccccc23)no1` , the value recorded as its cell count is 400

Field cell count (entry COC(=O)C1=C(C)C(c2cccs2)NC(=O)N1C (stereo not drawn) ) reads 464

Per the record, `Cc1[nH]nc2c1C(=O)CCC2` has cell count of 639

Quick note, cell count for O=S(NCc1ccco1)C12CC3CC(CC(C3)C1)C2 (stereo not drawn) landed at 426

So for `CCc1nc(N)c(C#N)c(-c2ccc(OC)c(OC)c2)c1C` , the logged cell count turned out to be 628

# compound `Cc1ccccc1-n1nnc2c(=O)oc3ccccc3c21` ; its cell count = 345

The value of cell count measured for the compound CCn1c(SCC(=O)c2ccc(OC)cc2)nnc1C(C)NC(=O)c1ccc(OC)cc1 (stereo not drawn) turned out to be 449

Noted for `Cc1cccc(NC(=O)Nc2cccc(C#N)c2)n1` : its cell count reads 907

Sample CSCCC(NS(=O)(=O)c1ccc2c(c1)oc(=O)n2C)C(=O)NC1CCCCC1 (stereo not drawn) ; cell count observed: 627

The compound listed as `COc1cccc(-c2nc(CS(=O)(=O)CC(=O)Nc3cc(C)ccc3C)c(C)o2)c1` has a reported cell count of 718

# compound `COc1ccc2[nH]c(=O)c(CNC3CCCCC3)cc2c1` ; its cell count = 673

`CCCCn1c(NCCC)nc2c1c(=O)[nH]c(=O)n2C` has a reported cell count of 383

The compound `CCc1nn2c(=O)cc(CSc3nc4sc5c(c4c(=O)n3C)CCCC5)nc2s1` showed cell count equal to 536

For reference, reported cell count for `Cc1ccccc1CN1CCN(CC(=O)NCc2ccccc2)C1=O` stands at 518

Please fill in: cell count reported for `O=c1[nH]c(/C(=N\O)c2ccccc2)no1` = 462

Recorded cell count (compound `COc1ccccc1OCC(=O)Nc1cccc(-c2nc3ccccc3o2)c1` ): 468

// sample `Cc1ccc(NC(=O)CSc2nnc(CNC(=O)c3c(F)cccc3Cl)o2)cc1` , its cell count was 645

Noted for `COCCN(Cc1cc2cccc(C)c2[nH]c1=O)C(=O)c1ccccc1` : its cell count reads 298

The compound identified as `CCOC(=O)Cn1nc(-c2ccc(C)cc2)ccc1=O` registered its cell count at 534

In plain terms, `Cc1cc(C)n(-c2cc(N3CCOCC3)nc(-c3ccccc3)n2)n1` has a documented cell count of 323

Lab book: cell count of `O=C(CCSc1nc(-c2ccco2)cc(C(F)(F)F)n1)NCCc1ccccc1` noted as 491

Recorded cell count (compound COc1ccccc1CN1CC(C(=O)NCc2cccnc2)CC1=O (stereo not drawn) ): 536

Just so you know, measured cell count for `CSc1ccc(-c2nc(CSCC(=O)N3CCOCC3)c(C)o2)cc1` came out at 243

cell count reported for this compound `COc1ccc(S(=O)(=O)N2CCN(Cc3ccc(Cl)cc3)CC2)cc1` : 554

So, CSCCC(NC(=O)c1ccco1)C(=O)OC(C)C(=O)NC(=O)NC1CCCCC1 (stereo not drawn) ? Its cell count was 538

Item: `Cc1ccc(Cn2nnc(C(=O)Nc3cccc(C)c3C)c2N)cc1` | cell count: 457

Per the records, this compound ( `CCCCSc1nc2c(cnn2-c2ccc(F)cc2)c(=O)[nH]1` ) has cell count equal to 619

Sure, the documented cell count for `CCOC(=O)Cc1nnc(NC(=O)c2ncn[nH]2)s1` is 343

# compound `CCOC(=O)N1CCN(C(=O)c2c(-c3ccccc3)noc2C)CC1` ; its cell count = 816

// cell count lookup, compound = COc1cc2cc(C(c3nnnn3C3CCCC3)N(C)C3CCCCC3)c(=O)[nH]c2cc1OC (stereo not drawn) , result: 537
